B1: TPR t1 (parent)
chain: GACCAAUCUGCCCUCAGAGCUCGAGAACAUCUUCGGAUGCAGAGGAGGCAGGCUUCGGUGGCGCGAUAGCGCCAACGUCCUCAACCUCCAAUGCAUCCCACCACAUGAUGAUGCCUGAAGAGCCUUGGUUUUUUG

- Variants of: B1
- Protocol Details: polymerase ribozyme fitness, log enrichment relative to wild type (log ratio); higher = more active; in vitro selection for triplet polymerase activity
// label = yes (1) if polymerase ribozyme fitness (log ratio) is not less than -2, otherwise no (0)

# count of solved cases: 3
{"Variant Annotation": "C11G G77U C80U G113U", "Discrete Label": "no (0)"}
{"Variant Annotation": "C22A G42U G71U G113C", "Discrete Label": "no (0)"}
{"Variant Annotation": "G47C C64U", "Discrete Label": "no (0)"}

Could you please find out whether G47A G61A has polymerase ribozyme fitness (log ratio) that meets -2 or exceeds it? no (0)

Could you please find out whether A66G C82U C88G C124U has polymerase ribozyme fitness (log ratio) that meets -2 or exceeds it? yes (1)
